Test system: PPARg:RXRa IVT, anti-PPARg (NR concentration 270 nM, RXRa partner concentration 90 nM)
Assay: PBM binding z-score (relative to random genomic background probes); higher = stronger binding; sequences stand for … in GC…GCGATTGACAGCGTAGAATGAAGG
Given measured PBM binding z-score, output condition met if it is greater than or equal to 4 and condition not met if not.

For orientation, consider the following solved cases.
IN: Does the sequence `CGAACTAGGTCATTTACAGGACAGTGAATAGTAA` have recorded PBM binding z-score that is 4 or more?
OUT: condition met

IN: Does the sequence `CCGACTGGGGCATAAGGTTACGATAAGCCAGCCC` have recorded PBM binding z-score that is 4 or more?
OUT: condition not met

New cases:
IN: Does the sequence `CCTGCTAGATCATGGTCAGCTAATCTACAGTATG` have recorded PBM binding z-score that is 4 or more?
OUT: condition not met

IN: Does the sequence `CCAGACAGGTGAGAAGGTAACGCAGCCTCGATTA` have recorded PBM binding z-score that is 4 or more?
OUT: condition not met

IN: Does the sequence `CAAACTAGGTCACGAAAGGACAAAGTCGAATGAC` have recorded PBM binding z-score that is 4 or more?
OUT: condition met

----------
Tested on: LXRb:RXRa (NR concentration 270 nM, RXRa partner concentration 90 nM)
Test: PBM binding z-score (relative to random genomic background probes); higher = stronger binding; sequences stand for … in GC…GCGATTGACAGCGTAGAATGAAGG
Grouping by measured PBM binding z-score is done with the following cut points: lower segment: < 0.7; middle segment: ≥ 0.7 and < 3; upper segment: ≥ 3

For orientation, consider the following solved cases.
IN: Please report the category associated with `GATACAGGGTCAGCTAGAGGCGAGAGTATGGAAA` , nothing else.
OUT: middle segment

IN: Please report the category associated with `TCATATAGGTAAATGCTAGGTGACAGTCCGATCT` , nothing else.
OUT: lower segment

IN: Please report the category associated with `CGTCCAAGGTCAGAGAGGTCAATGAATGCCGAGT` , nothing else.
OUT: upper segment

IN: Please report the category associated with `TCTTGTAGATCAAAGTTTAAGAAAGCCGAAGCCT` , nothing else.
OUT: lower segment

New cases:
IN: Please report the category associated with `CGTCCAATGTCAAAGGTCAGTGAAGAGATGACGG` , nothing else.
OUT: upper segment

IN: Please report the category associated with `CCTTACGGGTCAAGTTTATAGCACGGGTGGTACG` , nothing else.
OUT: upper segment

IN: Please report the category associated with `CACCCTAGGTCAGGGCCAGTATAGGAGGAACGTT` , nothing else.
OUT: middle segment

IN: Please report the category associated with `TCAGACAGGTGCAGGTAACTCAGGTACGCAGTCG` , nothing else.
OUT: lower segment

IN: Please report the category associated with `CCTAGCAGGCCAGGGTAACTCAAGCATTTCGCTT` , nothing else.
OUT: lower segment

IN: Please report the category associated with `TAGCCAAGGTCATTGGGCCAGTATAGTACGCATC` , nothing else.
OUT: upper segment

IN: Please report the category associated with `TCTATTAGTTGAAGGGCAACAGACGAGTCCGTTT` , nothing else.
OUT: middle segment

----------
Test system: LXRa homodimer (NR concentration 270 nM)
Assay: PBM binding z-score (relative to random genomic background probes); higher = stronger binding; sequences stand for … in GC…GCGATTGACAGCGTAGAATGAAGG
Grouping by measured PBM binding z-score is done with the following cut points: bottom bin: < 0.03; middle bin: ≥ 0.03 and < 0.6; top bin: ≥ 0.6

For orientation, consider the following solved cases.
IN: Please report the category associated with `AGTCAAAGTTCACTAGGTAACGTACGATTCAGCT` , nothing else.
OUT: top bin

IN: Please report the category associated with `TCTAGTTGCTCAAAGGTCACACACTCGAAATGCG` , nothing else.
OUT: top bin

IN: Please report the category associated with `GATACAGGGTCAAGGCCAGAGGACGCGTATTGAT` , nothing else.
OUT: bottom bin

New cases:
IN: Please report the category associated with `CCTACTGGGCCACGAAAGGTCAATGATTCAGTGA` , nothing else.
OUT: top bin

IN: Please report the category associated with `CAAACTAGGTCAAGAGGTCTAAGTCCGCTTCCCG` , nothing else.
OUT: middle bin

IN: Please report the category associated with `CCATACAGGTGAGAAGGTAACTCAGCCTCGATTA` , nothing else.
OUT: middle bin

IN: Please report the category associated with `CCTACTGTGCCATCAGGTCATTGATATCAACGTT` , nothing else.
OUT: top bin

IN: Please report the category associated with `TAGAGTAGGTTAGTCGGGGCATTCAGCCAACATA` , nothing else.
OUT: middle bin

IN: Please report the category associated with `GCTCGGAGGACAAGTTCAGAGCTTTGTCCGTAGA` , nothing else.
OUT: bottom bin

IN: Please report the category associated with `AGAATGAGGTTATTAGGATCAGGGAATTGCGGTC` , nothing else.
OUT: middle bin

IN: Please report the category associated with `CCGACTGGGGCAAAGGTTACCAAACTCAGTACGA` , nothing else.
OUT: middle bin
